Biological target: CDK2/Cyclin E (Homo sapiens)
Construct: The open reading frames of CDK2 and Cyclin E were isolated by reverse transcriptase-PCR; GST-Rb substrate made in E. coli BL21(DE3) pLysS
Assay: in vitro kinase assay (Scintillation Proximity Assay), incorporation of [γ-33-P]-ATP into GST-Rb
Conditions: CDK2/Cyclin E partially-purified enzyme, GST-Rb substrate, 0.2 μM ATP, room temperature 60 mins; read-out: CDK2 inhibitory activity IC50
readout-kind: IC50 (nM)
// note: answer is a bare numeric in nM

Tell me measured IC50 for Cc1ncc(-c2ccnc(N[C@H]3CC[C@H](N(C)C)CC3)n2)n1C(C)C [Example 4] please. 159

Measured values drawn from patent US20100063049A1 for this set.
